- Tested on: Escherichia coli
- ASSAY: Antimicrobial activity against Escherichia coli MTCC 723 at 500 ug/ml after 24 hrs by cup plate method
- Format: functional
- MEASUREMENT_SETUP: MTCC 723, 24 h, read-out: IZ
REPORTED_METRIC: zone of inhibition at 500 µg/mL (mm)
Field: numeric (mm). Do not append units.

The observed zone of inhibition at 500 µg/mL for Nc1n[nH]c2c1C(c1c(-c3ccccc3)[nH]c3ccc(Cl)cc13)C=C(c1ccc(Cl)cc1)O2 (stereo not drawn) when tested with Escherichia coli stands at 13

The observed zone of inhibition at 500 µg/mL for Cc1ccc(C2=CC(c3c(-c4ccccc4)[nH]c4ccccc34)c3c(nc[nH]c3=O)O2)cc1 (stereo not drawn) when tested with Escherichia coli stands at 3

The observed zone of inhibition at 500 µg/mL for Cc1ccc2[nH]c(-c3ccccc3)c(C3C=C(c4ccccc4)Oc4nc[nH]c(=O)c43)c2c1 (stereo not drawn) when tested with Escherichia coli stands at 8

The observed zone of inhibition at 500 µg/mL for Cc1ccc2[nH]c(-c3ccccc3)c(C3C=C(c4ccc(Cl)cc4)Oc4[nH]c(=S)nc(N)c43)c2c1 (stereo not drawn) when tested with Escherichia coli stands at 4

The observed zone of inhibition at 500 µg/mL for Cc1ccc(C2=CC(c3c(-c4ccccc4)[nH]c4ccc(C)cc34)c3c(N)n[nH]c3O2)cc1 (stereo not drawn) when tested with Escherichia coli stands at 8

The observed zone of inhibition at 500 µg/mL for Cc1ccc(C2=CC(c3c(-c4ccccc4)[nH]c4ccccc34)c3c(N)nc(=O)[nH]c3O2)cc1 (stereo not drawn) when tested with Escherichia coli stands at 7

The observed zone of inhibition at 500 µg/mL for Cc1ccc(C2=CC(c3c(-c4ccccc4)[nH]c4ccc(Cl)cc34)c3c(nc4oc(=O)c(C#N)c(N)c4c3N)O2)cc1 (stereo not drawn) when tested with Escherichia coli stands at 12

The observed zone of inhibition at 500 µg/mL for Cc1ccc2[nH]c(-c3ccccc3)c(C3C=C(c4ccc(Cl)cc4)OC(N)=C3C#N)c2c1 (stereo not drawn) when tested with Escherichia coli stands at 10
